The measurements presented in this section are drawn from paper PMC9482650.

# Target entity: MAST2, Q6P0Q8
# Sequence (Q6P0Q8 1099-1202): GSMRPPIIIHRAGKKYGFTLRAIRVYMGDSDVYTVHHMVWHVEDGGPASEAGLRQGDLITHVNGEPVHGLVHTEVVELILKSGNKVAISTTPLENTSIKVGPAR
# Test method notes: holdup assay
# Set-up: key: below the threshold = too weak to quantify, mostly under pKd 3.1 to 4
# Condition info: plain residues with an end cap or a label only (N-terminal biotin on a linker: ado-ado)
Assay metric: pKd

- Binder: "LAHVKHKEQI [AQP3, Q92482]"
  Measured: "below the threshold"
- Binder: "MHIQEKGFHV [EPHA6, Q9UF33]"
  Measured: "below the threshold"
- Binder: "GTGYDRKDYV [CLDN3, O15551]"
  Measured: "below the threshold"
